# Organism: Rattus norvegicus
# Measurement Description: Open TG-GATES - Regimen: Single
# Format: toxicity, organism-based, Sprague-Dawley
# Design: regimen Single, gender Male, age 6 weeks
# Assay Context: in vivo, po, 300 mg/kg, 3 h, tissue Blood, route gavage, dose level Middle
Answer each item with its documented Plat.
Give just the numeric value; x10_4/uL need not be written.

Consider CCOC(=O)CCC(=O)O[C@H]1[C@H](O[C@@H]2[C@@H](C)[C@H](O[C@H]3C[C@@](C)(OC)[C@@H](O)[C@H](C)O3)[C@@H](C)C(=O)O[C@H](CC)[C@@](C)(O)[C@H](O)[C@@H](C)C(=O)[C@H](C)C[C@@]2(C)O)O[C@H](C)C[C@@H]1N(C)C [ERYTHROMYCIN ETHYLSUCCINATE] . Its measured Plat is 123.6

Entry COc1ccc2[nH]c([S+]([O-])Cc3ncc(C)c(OC)c3C)nc2c1 (centres undefined) [OMEPRAZOLE] , Plat reported as 128.9

Per the records, this compound ( COC1=CC(=O)C[C@@H](C)[C@]12Oc1c(Cl)c(OC)cc(OC)c1C2=O [GRISEOFULVIN] ) has Plat equal to 130.7

Record NC(N)=Nc1nc(CSCCC(N)=NS(N)(=O)=O)cs1 [FAMOTIDINE] . Reported Plat: 116.7

---

# Species: Rattus norvegicus
# Measurement Description: Open TG-GATES - Regimen: Daily Repeat
# Assay type: toxicity, organism-based, Sprague-Dawley
# Set-up: regimen Daily Repeat, gender Male, age 6 weeks
# Assay Context: in vivo, po, 0 mg/kg, […], tissue Plasma, route gavage, dose level Control, time 7 day
So I've got a bunch of molecules here, and I need their ALT values.
Provide the reading as a plain figure in IU/L.

The molecule listed as CCOC(=O)CCC(=O)O[C@H]1[C@H](O[C@@H]2[C@@H](C)[C@H](O[C@H]3C[C@@](C)(OC)[C@@H](O)[C@H](C)O3)[C@@H](C)C(=O)O[C@H](CC)[C@@](C)(O)[C@H](O)[C@@H](C)C(=O)[C@H](C)C[C@@]2(C)O)O[C@H](C)C[C@@H]1N(C)C [ERYTHROMYCIN ETHYLSUCCINATE] has a reported ALT of 43

// field: ALT; key: COC1=CC(=O)C[C@@H](C)[C@]12Oc1c(Cl)c(OC)cc(OC)c1C2=O ; value = 41.2

Reported ALT for CN(C)CCN(Cc1cccs1)c1ccccn1 was 40

---

Provide the recorded TERMINAL_BW for the entries that follow.
# Species: Rattus norvegicus
# Measurement Description: Open TG-GATES - Regimen: Single
# Type: toxicity, organism-based, Sprague-Dawley
# Parameters: regimen Single, gender Male, age 6 weeks
# Assay Context: in vivo, po, 300 mg/kg, 24 h, route gavage, dose level Middle
Give the quantity in g, number only.

Reported TERMINAL_BW for CCOC(=O)CCC(=O)O[C@H]1[C@H](O[C@@H]2[C@@H](C)[C@H](O[C@H]3C[C@@](C)(OC)[C@@H](O)[C@H](C)O3)[C@@H](C)C(=O)O[C@H](CC)[C@@](C)(O)[C@H](O)[C@@H](C)C(=O)[C@H](C)C[C@@]2(C)O)O[C@H](C)C[C@@H]1N(C)C [ERYTHROMYCIN ETHYLSUCCINATE] was 226.7

Measured TERMINAL_BW of NC(N)=Nc1nc(CSCCC(N)=NS(N)(=O)=O)cs1 [FAMOTIDINE] : 227

Field TERMINAL_BW (entry COC1=CC(=O)C[C@@H](C)[C@]12Oc1c(Cl)c(OC)cc(OC)c1C2=O [GRISEOFULVIN] ) reads 223.4

Reported TERMINAL_BW for COc1ccc2[nH]c([S+]([O-])Cc3ncc(C)c(OC)c3C)nc2c1 (centres undefined) [OMEPRAZOLE] was 229.5

---

# Species on record: Rattus norvegicus
# Measurement Description: Open TG-GATES - Regimen: Single
# Assay type: toxicity, organism-based, Sprague-Dawley
# Parameters: regimen Single, gender Male, age 6 weeks
# Assay Context: in vivo, po, 300 mg/kg, 3 h, tissue Plasma, route gavage, dose level Middle
Readout Name: ALP

Entry CCOC(=O)CCC(=O)O[C@H]1[C@H](O[C@@H]2[C@@H](C)[C@H](O[C@H]3C[C@@](C)(OC)[C@@H](O)[C@H](C)O3)[C@@H](C)C(=O)O[C@H](CC)[C@@](C)(O)[C@H](O)[C@@H](C)C(=O)[C@H](C)C[C@@]2(C)O)O[C@H](C)C[C@@H]1N(C)C [ERYTHROMYCIN ETHYLSUCCINATE] ; ALP = 1689.6 IU/L

The value of ALP measured for the compound COc1ccc2[nH]c([S+]([O-])Cc3ncc(C)c(OC)c3C)nc2c1 (centres undefined) [OMEPRAZOLE] turned out to be 904.2 IU/L

COC1=CC(=O)C[C@@H](C)[C@]12Oc1c(Cl)c(OC)cc(OC)c1C2=O [GRISEOFULVIN] yielded ALP of 1144 IU/L

The recorded ALP for entry NC(N)=Nc1nc(CSCCC(N)=NS(N)(=O)=O)cs1 [FAMOTIDINE] equals 814.6 IU/L

---

What ALT was measured for each of the following?
# Species: Rattus norvegicus
# Measurement Description: Open TG-GATES - Regimen: Daily Repeat
# Type: toxicity, organism-based, Sprague-Dawley
# Set-up: regimen Daily Repeat, gender Male, age 6 weeks
# Assay Context: in vivo, po, 1000 mg/kg, 72 h, tissue Plasma, route gavage, dose level High, time 3 day
Write the answer as a number in IU/L, unit excluded.

Form: compound = CC(C)OC(=O)C(C)(C)Oc1ccc(C(=O)c2ccc(Cl)cc2)cc1 [FENOFIBRATE] ; ALT = 51.4

Recorded result, CCOC(=O)CCC(=O)O[C@H]1[C@H](O[C@@H]2[C@@H](C)[C@H](O[C@H]3C[C@@](C)(OC)[C@@H](O)[C@H](C)O3)[C@@H](C)C(=O)O[C@H](CC)[C@@](C)(O)[C@H](O)[C@@H](C)C(=O)[C@H](C)C[C@@]2(C)O)O[C@H](C)C[C@@H]1N(C)C [ERYTHROMYCIN ETHYLSUCCINATE] , ALT: 38.2

So, CCOc1ccc(NC(=O)CC(C)O)cc1 (stereo not given) [BUCETIN] ? Its ALT was 41.2

ALT in this record for COC1=CC(=O)C[C@@H](C)[C@]12Oc1c(Cl)c(OC)cc(OC)c1C2=O [GRISEOFULVIN] : 40.6

Entry NC(N)=Nc1nc(CSCCC(N)=NS(N)(=O)=O)cs1 [FAMOTIDINE] , ALT reported as 32.8

---

Provide the recorded ALP for the entries that follow.
# Species on record: Rattus norvegicus
# Measurement Description: Open TG-GATES - Regimen: Daily Repeat
# Format: toxicity, organism-based, Sprague-Dawley
# Set-up: regimen Daily Repeat, gender Male, age 6 weeks
# Assay Context: in vivo, po, 1000 mg/kg, […], tissue Plasma, route gavage, dose level High, time 28 day
Please state the number and follow it with the unit.

The measured ALP associated with CCOc1ccc(NC(=O)CC(C)O)cc1 (stereo not given) [BUCETIN] reads 1352.6 IU/L

compound NC(N)=Nc1nc(CSCCC(N)=NS(N)(=O)=O)cs1 [FAMOTIDINE] , ALP observed: 722.6 IU/L

// field: ALP; key: COC1=CC(=O)C[C@@H](C)[C@]12Oc1c(Cl)c(OC)cc(OC)c1C2=O [GRISEOFULVIN] ; value = 500.8 IU/L

Quick note, ALP for CCOC(=O)CCC(=O)O[C@H]1[C@H](O[C@@H]2[C@@H](C)[C@H](O[C@H]3C[C@@](C)(OC)[C@@H](O)[C@H](C)O3)[C@@H](C)C(=O)O[C@H](CC)[C@@](C)(O)[C@H](O)[C@@H](C)C(=O)[C@H](C)C[C@@]2(C)O)O[C@H](C)C[C@@H]1N(C)C [ERYTHROMYCIN ETHYLSUCCINATE] landed at 1257.4 IU/L

The recorded ALP for entry COc1ccc2[nH]c([S+]([O-])Cc3ncc(C)c(OC)c3C)nc2c1 (stereo not given) [OMEPRAZOLE] equals 458.4 IU/L

---

# Species: Rattus norvegicus
# Measurement Description: Open TG-GATES - Regimen: Daily Repeat
# Format: toxicity, organism-based, Sprague-Dawley
# Design: regimen Daily Repeat, gender Male, age 6 weeks
# Assay Context: in vivo, po, 300 mg/kg, […], tissue Blood, route gavage, dose level Middle, time 14 day
Readout Name: MCHC (%)
Report the figure in % without appending any unit label.

Documented MCHC of CCOc1ccc(NC(=O)CC(C)O)cc1 (stereo not given) [BUCETIN] : 34.1

MCHC reported for this compound CCOC(=O)CCC(=O)O[C@H]1[C@H](O[C@@H]2[C@@H](C)[C@H](O[C@H]3C[C@@](C)(OC)[C@@H](O)[C@H](C)O3)[C@@H](C)C(=O)O[C@H](CC)[C@@](C)(O)[C@H](O)[C@@H](C)C(=O)[C@H](C)C[C@@]2(C)O)O[C@H](C)C[C@@H]1N(C)C [ERYTHROMYCIN ETHYLSUCCINATE] : 34.7

Recorded MCHC (compound COC1=CC(=O)C[C@@H](C)[C@]12Oc1c(Cl)c(OC)cc(OC)c1C2=O [GRISEOFULVIN] ): 33.7

MCHC reported for this compound NC(N)=Nc1nc(CSCCC(N)=NS(N)(=O)=O)cs1 [FAMOTIDINE] : 34.3

# MCHC of COc1ccc2[nH]c([S+]([O-])Cc3ncc(C)c(OC)c3C)nc2c1 (stereo not given) [OMEPRAZOLE] = 34.6
